# Test system: M14 melanoma
# experiment-description: NCI tumour cell line growth inhibition, 48 h; in the data active = GI50 below about 0.43 µM; inactive = the rest
Response enum: active, inactive

{"columns": ["molecule", "measurement-target", "assigned-class"],
 "data": [
  ["C[C@]12CCc3sc(-c4cccc(F)c4)nc3C1=CC[C@@H]1[C@@H]2CC[C@]2(C)C(=O)CC[C@@H]12", "M14 melanoma", "inactive"],
  ["CNC(=O)c1cc2c(Oc3ccc(NC(=S)NC(=O)Cc4ccccc4)cc3F)ccnc2cc1OC", "M14 melanoma", "inactive"],
  ["CC(=O)c1cccc(NC(=O)c2ccc(NC3=C(Cl)C(=O)N(Cc4ccccc4)C3=O)cc2)c1", "M14 melanoma", "inactive"]
]}

Read the next record carefully.
(Q) // return assay outcome for COc1cc(C2C3=C(COC3=O)Nc3cc4c(cc32)OCO4)cc2c1OCO2 (centres undefined)
(A) active
